# system: T1, human TREM2 (human, UniProt Q9NZC2 19-174, limits assumed)
# T1 sequence: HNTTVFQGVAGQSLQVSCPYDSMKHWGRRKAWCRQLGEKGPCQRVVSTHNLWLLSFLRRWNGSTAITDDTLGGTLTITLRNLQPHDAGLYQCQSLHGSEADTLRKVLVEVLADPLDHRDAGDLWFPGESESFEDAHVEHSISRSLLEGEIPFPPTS
# protocol.notes: yeast-displayed Fab FACS, 2nd screen 2 nM
// reported binding signal fold over 6E7 parental per item
Reply numerically in fold, unit not repeated.

Here's what some known entries look like.
V13 (Fab, V domains shown) VH: EVQLVQSGAEVKKPGESLKISCKGSGYSFGSYWIAWVRQMPGKGLEWMGIIYPGDSDTRYSASFQGQVTISADKSISTAYLQWSSLKASDTAMYFCARGRTFYYDSSDYFDYWGQGTLVTVSS VL: DIQMTQSPSSVSASVGDRVTITCRASQGISSWLAWYQQKPGKAPKLLIYAASSLQGGVPSRFSGSGSGTDFTLTISSLQPEDFATYFCQQADSMPRTFGQGTKLEIK    1.15
V24 (Fab, V domains shown) VH: EVQLVQSGAEVKKPGESLKISCKGSGYSFTSYWIAWVRQMPGKGLEWMGIIYPGDSDVRYSPSFQGQVTISADKSISTAYLQWSSLKASDTAMYFCARSRTFYYDSSDYFDYWGQGTLVTVSS VL: DIQMTQSPSSVSASVGDRVTITCRASQGISSWLAWYQQKPGKAPKLLIYAASSLQKGVPSRFSGSGSGTDFTLTISSLQPEDFATYFCQQADSFPHTFGQGTKLEIK    1.42

Attention now turns to another entry.
Recorded result, V1 (Fab, V domains shown) VH: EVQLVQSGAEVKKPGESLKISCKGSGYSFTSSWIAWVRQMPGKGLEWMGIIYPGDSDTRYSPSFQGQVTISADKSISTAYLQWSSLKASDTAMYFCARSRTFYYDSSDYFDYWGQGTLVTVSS VL: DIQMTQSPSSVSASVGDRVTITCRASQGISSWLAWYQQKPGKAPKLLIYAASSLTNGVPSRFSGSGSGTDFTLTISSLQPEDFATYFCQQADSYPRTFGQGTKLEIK , binding signal fold over 6E7 parental: 1.29
